TEST_SUMMARY: Antifungal activity against Candida mycoderma ATCC 9888 after 24 hrs by micro broth dilution method
Assay type: functional
PROTOCOL_CONDITIONS: Candida vini
READOUT_NAME: MIC80 (µg/mL)
Numbers only; they are read as µg/mL.

Noted for "CCn1cc(C(=O)O)c(=O)c2cc(F)c(N3CCN(Cc4nc5ccccc5n4Cc4cccc(Cl)c4)CC3)cc21" : its MIC80 reads 2

Noted for "O=C(O)c1cn(C2CC2)c2cc(N3CCN(Cc4nc5ccccc5n4Cc4ccc(F)cc4)CC3)c(F)cc2c1=O" : its MIC80 reads 16

Noted for "O=C(O)c1cn(C2CC2)c2cc(N3CCN(Cc4nc5ccccc5n4Cc4ccc(Cl)cc4Cl)CC3)c(F)cc2c1=O" : its MIC80 reads 0.25

Noted for "CCCCCCCCCCn1c(CN2CCN(c3cc4c(cc3F)c(=O)c(C(=O)O)cn4CC)CC2)nc2ccccc21" : its MIC80 reads 8

Noted for "O=C(O)c1cn(C2CC2)c2cc(N3CCN(Cc4nc5ccccc5[nH]4)CC3)c(F)cc2c1=O" : its MIC80 reads 0.125

Noted for "CCn1cc(C(=O)O)c(=O)c2cc(F)c(N3CCN(c4nc5ccccc5[nH]4)CC3)cc21" : its MIC80 reads 16

Noted for "CCCCCCCCCCn1c(CN2CCN(c3cc4c(cc3F)c(=O)c(C(=O)O)cn4C3CC3)CC2)nc2ccccc21" : its MIC80 reads 64

Noted for "O=C(O)c1cn(C2CC2)c2cc(N3CCN(c4nc5ccccc5[nH]4)CC3)c(F)cc2c1=O" : its MIC80 reads 16

----------
TEST_SUMMARY: Antifungal activity against Candida mycoderma ATCC 9888 after 24 hrs by micro broth dilution method
Format: functional
PROTOCOL_CONDITIONS: Candida vini
Param label: returns Yes when MIC80 < 2 µg/mL, returns No otherwise, including exact equality.

# example entries with known answers
[[record]]
molecule = "CCn1cc(C(=O)O)c(=O)c2cc(F)c(N3CCN(Cc4nc5ccccc5n4Cc4ccccc4F)CC3)cc21"
classification = "No"

[[record]]
molecule = "CCn1cc(C(=O)O)c(=O)c2cc(F)c(N3CCN(Cc4nc5ccccc5n4Cc4ccc(F)cc4)CC3)cc21"
classification = "No"

[[record]]
molecule = "CCCCCn1c(CN2CCN(c3cc4c(cc3F)c(=O)c(C(=O)O)cn4CC)CC2)nc2ccccc21"
classification = "No"

[[record]]
molecule = "CCn1cc(C(=O)O)c(=O)c2cc(F)c(N3CCN(Cc4nc5ccccc5n4Cc4cccc(F)c4)CC3)cc21"
classification = "No"

[[record]]
molecule = "O=C(O)c1cn(C2CC2)c2cc(N3CCN(Cc4nc5ccccc5n4Cc4cccc(Cl)c4)CC3)c(F)cc2c1=O"
classification = "Yes"

[[record]]
molecule = "O=C(O)c1cn(C2CC2)c2cc(N3CCN(Cc4nc5ccc(Cl)cc5[nH]4)CC3)c(F)cc2c1=O"
classification = "Yes"

[[record]]
molecule = "CCn1cc(C(=O)O)c(=O)c2cc(F)c(N3CCN(Cc4nc5ccc(F)cc5[nH]4)CC3)cc21"
classification = "Yes"

[[record]]
molecule = "O=C(O)c1cn(C2CC2)c2cc(N3CCN(CNc4nc5ccccc5[nH]4)CC3)c(F)cc2c1=O"
classification = "Yes"

[[record]]
molecule = "OC(Cn1cncn1)(Cn1cncn1)c1ccc(F)cc1F [FLUCONAZOLE]"
classification = "No"

[[record]]
molecule = "O=C(O)c1cn(C2CC2)c2cc(N3CCN(Cc4nc5ccccc5n4Cc4ccc([N+](=O)[O-])cc4)CC3)c(F)cc2c1=O"
classification = "No"


Does the reported MIC80 of the following molecule sit strictly below 2 µg/mL? "O=C(O)c1cn(C2CC2)c2cc(N3CCN(Cc4nc5ccccc5n4Cc4cccc(F)c4)CC3)c(F)cc2c1=O"
No

Does the reported MIC80 of the following molecule sit strictly below 2 µg/mL? "CCn1cc(C(=O)O)c(=O)c2cc(F)c(N3CCN(Cc4nc5ccc(Cl)cc5[nH]4)CC3)cc21"
No

The measurements presented in this section are drawn from ChEMBL document CHEMBL3769303.
